System: K177 cell line
Assay: Ability to stimulate Rb+ efflux from human K177 cell preparations containing human alpha4-beta2 receptors
Type: functional, cell-based
pIC50: −log10 of the molar value.
MEASURED ATTRIBUTE: pIC50

>>> df
             smiles_string  assay_result
0  CN1CCC[C@@H]1COc1cccnc1          3.96

---

Target: Neuronal acetylcholine receptor
Experiment: Binding affinity against Nicotinic Acetylcholine Receptor was determined by measuring the displacement of [3H]cytisine from a preparation of whole rat brain.
MEASURED ATTRIBUTE: Ki (nM)

                                   compound  measured_attribute  assay_result
0                   c1cncc(OC[C@H]2CCCN2)c1                  Ki          0.14
1                   CN1CCC[C@@H]1COc1cccnc1                  Ki          19.7
2                    CN1CC[C@@H]1COc1cccnc1                  Ki           3.5
3  CN1CCC[C@H]1COc1cccnc1 (stereo in doubt; 2a)                  Ki          0.15
4                     CN1CC[C@H]1COc1cccnc1                  Ki          0.45

The measured values listed here are drawn from ChEMBL document CHEMBL1129752.
